Biological target: CK2α (Homo sapiens)
Sequence (P68400 whole entry): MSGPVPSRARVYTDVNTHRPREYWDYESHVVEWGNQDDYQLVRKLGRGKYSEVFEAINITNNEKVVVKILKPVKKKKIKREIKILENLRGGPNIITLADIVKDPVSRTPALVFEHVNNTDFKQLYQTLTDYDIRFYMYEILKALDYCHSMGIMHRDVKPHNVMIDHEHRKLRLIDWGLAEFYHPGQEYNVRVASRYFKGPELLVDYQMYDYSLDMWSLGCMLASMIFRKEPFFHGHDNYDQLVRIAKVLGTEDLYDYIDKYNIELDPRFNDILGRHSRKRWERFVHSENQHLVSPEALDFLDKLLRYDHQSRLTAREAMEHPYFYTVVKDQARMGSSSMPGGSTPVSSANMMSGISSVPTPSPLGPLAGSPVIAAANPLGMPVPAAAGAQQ
Experiment: Radiometric kinase assay (HotSpot)
Conditions: read-out: Inhibitory activity (IC50 in nM) in radiometric cell free assay, CK2α; ATP 1 μM; peptide 20 μM
Listed below: IC50 values for each entry.
Reported Property: IC50 (nM)

{"Compound": "CN(C)c1nc2c(Br)c(Br)c(Br)c(Br)c2n1CC(=O)O [Compound K66, reference compound]", "Reading": 206}
{"Compound": "Brc1c(Br)c(Br)c2c(Br)n[nH]c2c1Br [Compound K64, reference compound]", "Reading": 637}

====

Target: UniProt Q86V86
Test: Radiometric kinase assay (HotSpot)
Quick reference for IC50 among some compounds

{"Test Smiles": "Brc1c(Br)c(Br)c2[nH]c(NCCCn3ccnc3)nc2c1Br", "Target Or System": "UniProt Q86V86", "IC50 (µM)": 0.0158}
{"Test Smiles": "Brc1c(Br)c(Br)c2[nH]c(NCCN3CCCC3)nc2c1Br", "Target Or System": "UniProt Q86V86", "IC50 (µM)": 0.0282}
{"Test Smiles": "Brc1c(Br)c(Br)c2[nH]c(NCCN3CCCCC3)nc2c1Br", "Target Or System": "UniProt Q86V86", "IC50 (µM)": 0.0607}
{"Test Smiles": "Nc1ccc(Nc2nc3c(Br)c(Br)c(Br)c(Br)c3[nH]2)cc1", "Target Or System": "UniProt Q86V86", "IC50 (µM)": 0.68}
{"Test Smiles": "NCCCNc1nc2c(Br)c(Br)c(Br)c(Br)c2[nH]1", "Target Or System": "UniProt Q86V86", "IC50 (µM)": 0.0233}
{"Test Smiles": "Brc1c(Br)c(Br)c2[nH]c(NCCCN3CCCCC3)nc2c1Br", "Target Or System": "UniProt Q86V86", "IC50 (µM)": 0.189}
{"Test Smiles": "Brc1c(Br)c(Br)c2[nH]c(Nc3ccccc3)nc2c1Br", "Target Or System": "UniProt Q86V86", "IC50 (µM)": 2.96}
{"Test Smiles": "NCCCCNc1nc2c(Br)c(Br)c(Br)c(Br)c2[nH]1", "Target Or System": "UniProt Q86V86", "IC50 (µM)": 0.0202}
{"Test Smiles": "Brc1c(Br)c(Br)c2[nH]c(NCCN3CCOCC3)nc2c1Br", "Target Or System": "UniProt Q86V86", "IC50 (µM)": 0.114}
